# TARGET UNDER TEST: human opioid receptor-like receptor (ORL-1) (Homo sapiens (Human), UniProt P41146)
# EXPERIMENT: ORL-1 receptor radioligand binding assay ([3H]-nociceptin)
# SETTINGS: binding affinity, read-out: Ki (nM) ORL-1
OBSERVED PROPERTY: Ki (nM)
Field: numeric (nM). Do not append units.

q: Identify measured Ki associated with N=C(N)NCCNC(=O)[C@@H]1C[C@]23CCN(CC4CC4)[C@H](Cc4ccc(O)cc42)[C@]3(O)C1
a: 10300

* * *

Items are presented alongside their recorded Emax.
# TARGET UNDER TEST: μ-opioid receptor (Homo sapiens (Human), UniProt P35372)
# EXPERIMENT: μ-opioid receptor [35S]GTPγS functional assay, U-2 OS cells (Table 5)
# Type: biochemical
# SETTINGS: relative to DAMGO
Answer format: numeric, % implied, no suffix.

CN(CC(=O)O)C(=O)[C@@H]1C[C@]23CCN(CC4CC4)[C@H](Cc4ccc(O)cc42)[C@]3(O)C1 ... 15.5
O=C(NCc1ccccc1)[C@@H]1C[C@]23CCN(CC4CC4)[C@H](Cc4ccc(O)cc42)[C@]3(O)C1 ... 45.7
Cc1ccc(CNC(=O)[C@H]2C[C@]34CCN(CC5CC5)[C@H](Cc5ccc(O)cc53)[C@]4(O)C2)cc1 ... 77.7
COc1ccc2c(c1)[C@]13CCN(CC4CC4)[C@H](C2)[C@]1(O)C[C@H](C(=O)O)C3 ... 26.7
O=C(NCc1ccc(Cl)c(Cl)c1)[C@@H]1C[C@]23CCN(CC4CC4)[C@H](Cc4ccc(O)cc42)[C@]3(O)C1 ... 38
O=C([C@@H]1C[C@]23CCN(CC4CC4)[C@H](Cc4ccc(O)cc42)[C@]3(O)C1)N1CCOCC1 ... 21.7
COc1ccc2c(c1)[C@]13CCN(CC4CC4)[C@H](C2)[C@]1(O)C[C@H](C(=O)N1CCCC1)C3 ... 29.3
CCN(CC)C(=O)[C@@H]1C[C@]23CCN(CC4CC4)[C@H](Cc4ccc(O)cc42)[C@]3(O)C1 ... 25.7
O=C([C@@H]1C[C@]23CCN(CC4CC4)[C@H](Cc4ccc(O)cc42)[C@]3(O)C1)N1CCCCC1 ... 16
O=C(NCc1ccc(O)cc1)[C@H]1C[C@]23CCN(CC4CC4)[C@H](Cc4ccc(O)cc42)[C@]3(O)C1 ... 29.3

q: Give the observed Emax of N=C(N)NCCNC(=O)[C@@H]1C[C@]23CCN(CC4CC4)[C@H](Cc4ccc(O)cc42)[C@]3(O)C1 for μ-opioid receptor (Homo sapiens (Human), UniProt P35372).
a: 57

q: Give Emax for this entry on μ-opioid receptor (Homo sapiens (Human), UniProt P35372): N=C(N)NCCCCNC(=O)[C@@H]1C[C@]23CCN(CC4CC4)[C@H](Cc4ccc(O)cc42)[C@]3(O)C1
a: 56.3

q: Given NC(=O)[C@H]1C[C@]23CCN(CC(F)(F)F)[C@H](Cc4ccc(O)cc42)[C@]3(O)C1 , report its Emax on μ-opioid receptor (Homo sapiens (Human), UniProt P35372).
a: 2

q: Give Emax for COc1ccc2c(c1)[C@]13CCN(CC4CC4)[C@H](C2)[C@]1(O)C[C@@H](C#N)C3 tested on μ-opioid receptor (Homo sapiens (Human), UniProt P35372).
a: 63

* * *

# TARGET UNDER TEST: κ-opioid receptor (Homo sapiens (Human))
# EXPERIMENT: κ-opioid receptor [35S]GTPγS functional assay, U-2 OS cells (Table 5)
# Assay type: biochemical
# SETTINGS: κ GTP
OBSERVED PROPERTY: EC50
Could you give the number and then its unit, please?

COc1ccc2c(c1)[C@]13CCN(CC4CC4)[C@H](C2)[C@]1(O)C[C@H](C(=O)N1CCCC1)C3 ... 4720 nM

q: Input O=C(NCc1ccc(Cl)cc1)[C@@H]1C[C@]23CCN(CC4CC4)[C@H](Cc4ccc(O)cc42)[C@]3(O)C1 , output reported EC50.
a: 0.67 nM

q: Tell me measured EC50 for O=C(NCCc1ccccc1)[C@H]1C[C@]23CCN(CC4CC4)[C@H](Cc4ccc(O)cc42)[C@]3(O)C1 please.
a: 0.047 nM

q: // fetch EC50 given entry O=C(NCc1cc(F)cc(F)c1)[C@@H]1C[C@]23CCN(CC4CC4)[C@H](Cc4ccc(O)cc42)[C@]3(O)C1
a: 0.82 nM

* * *

# TARGET UNDER TEST: μ-opioid receptor (Homo sapiens (Human))
# EXPERIMENT: μ-opioid receptor [35S]GTPγS functional assay, U-2 OS cells (Table 5)
# Type: biochemical
# SETTINGS: μ GTP
Overview of reported pEC50 across a group of molecules:
// scale note: pEC50 = -log10(conc_M); give the bare number

These solved cases illustrate the format of a correct answer.
O=C([C@H]1C[C@]23CCN(CC4CC4)[C@H](Cc4ccc(O)cc42)[C@]3(O)C1)N1CCCCC1 ... 8.55
Cc1ccc(CNC(=O)[C@@H]2C[C@]34CCN(CC5CC5)[C@H](Cc5ccc(O)cc53)[C@]4(O)C2)cc1 ... 8.07
COc1ccc2c(c1)[C@]13CCN(CC4CC4)[C@H](C2)[C@]1(O)C[C@@H](C(=O)O)C3 ... 6.47
COc1ccc2c(c1)[C@]13CCN(CC4CC4)[C@H](C2)[C@]1(O)C[C@@H](C(=O)N1CCCC1)C3 ... 5.91
CN(C)C(=O)[C@@H]1C[C@]23CCN(CC4CC4)[C@H](Cc4ccc(O)cc42)[C@]3(O)C1 ... 7.77

q: Report its pEC50 with μ-opioid receptor (Homo sapiens (Human)) as the test system: CC(C)CNC(=O)[C@@H]1C[C@]23CCN(CC4CC4)[C@H](Cc4ccc(O)cc42)[C@]3(O)C1
a: 7.71

q: Write pEC50 of O=C(NCc1ccc(O)cc1O)[C@@H]1C[C@]23CCN(CC4CC4)[C@H](Cc4ccc(O)cc42)[C@]3(O)C1 ; system used: μ-opioid receptor (Homo sapiens (Human))
a: 8.38

* * *

# TARGET UNDER TEST: κ-opioid receptor (Homo sapiens (Human), UniProt P41145)
# EXPERIMENT: κ-opioid receptor [35S]GTPγS functional assay, HEK-293 or CHO cells (Table 4)
# Type: biochemical
# SETTINGS: relative to U69,593
Measured Emax by item
Please state the figure in %; there is no need to write the unit.

Consider the following illustrative entries.
O=C(NCc1ccccc1)[C@@H]1C[C@]23CCN(CC4CC4)[C@H](Cc4ccc(O)cc42)[C@]3(O)C1 ... 43.3
N=C(N)NCCNC(=O)[C@@H]1C[C@]23CCN(CC4CC4)[C@H](Cc4ccc(O)cc42)[C@]3(O)C1 ... 48.6

q: Supply measured Emax of NC(=O)[C@@H]1C[C@]23CCN(CC4CC4)[C@H](Cc4ccc(O)cc42)[C@]3(O)C1 in your reply.
a: 35.3

* * *

// Emax lookup, one value per entry
# TARGET UNDER TEST: κ-opioid receptor (Homo sapiens (Human))
# EXPERIMENT: κ-opioid receptor [35S]GTPγS functional assay, U-2 OS cells (Table 5)
# Type: biochemical
# SETTINGS: relative to U69,593
All answers are understood in %, so give the number only.

O=C(O)[C@@H]1C[C@]23CCN(CC4CC4)[C@H](Cc4ccc(O)cc42)[C@]3(O)C1 ... 90.7
N=C(N)NCCCCNC(=O)[C@@H]1C[C@]23CCN(CC4CC4)[C@H](Cc4ccc(O)cc42)[C@]3(O)C1 ... 101
COc1ccc2c(c1)[C@]13CCN(CC4CC4)[C@H](C2)[C@]1(O)C[C@H](N)C3 ... 90
N[C@H]1CC23CCN(CC4CC4)[C@H](Cc4ccc(O)cc42)[C@]3(O)C1 (stereo in doubt) ... 107
O=C([C@@H]1C[C@]23CCN(CC4CC4)[C@H](Cc4ccc(O)cc42)[C@]3(O)C1)N1CCCCC1 ... 97.8

q: Give the reported Emax for this compound. NC(=O)[C@H]1C[C@]23CCN(CC4CC4)[C@H](Cc4ccc(O)cc42)[C@]3(O)C1
a: 100

q: Determine its reported Emax: COc1ccc2c(c1)[C@]13CCN(CC4CC4)[C@H](C2)[C@]1(O)C[C@H](C(N)=O)C3
a: 103

* * *

We begin with a simple list: items and their reported pEC50.
# TARGET UNDER TEST: μ-opioid receptor (Homo sapiens (Human))
# EXPERIMENT: μ-opioid receptor [35S]GTPγS functional assay, HEK-293 cells (Table 6)
# Type: biochemical
# SETTINGS: μ GTP
# Protocol: μ-Opioid Receptor Functional Assay Procedures: [^35S]GTPγS functional assays were conducted using freshly thawed μ-receptor membranes prepared in-house from a cell line expressing recombinant μ opioid receptor in a HEK-293, CHO or U-2 OS cell background, or purchased from a commercial source (Perkin Elmer, Shelton, Conn.; or DiscovRx, Fremont, Calif.). […] Data were analyzed using the sigmoidal dose-response curve fitting functions in GraphPad PRISM v. […]
For clarity, pEC50 is expressed as the negative log10 of concentration in mol/L.

Cc1ccc(CNC(=O)[C@H]2C[C@]34CCN(CC5CC5)[C@H](Cc5ccc(C(N)=O)cc53)[C@]4(O)C2)cc1 [Compound 116] ... 8.46
C[C@@H]1CN(CCNC(=O)[C@@H]2C[C@]34CCN(CC5CC5)[C@H](Cc5ccc(O)cc53)[C@]4(O)C2)C[C@H](C)O1 [Compound 134] ... 7.04
CN1CC[C@]23C[C@@H](C(=O)NCCN4CCOCC4)C[C@@]2(O)[C@H]1Cc1ccc(O)cc13 [Compound 112] ... 4.99
Cc1ccc(CNC(=O)[C@@H]2C[C@]34CCN(CC5CC5)[C@H](Cc5ccc(C#N)cc53)[C@]4(O)C2)cc1 [Compound 120] ... 6.20
CN1CC[C@]23C[C@@H](C(=O)NCc4ccc(Cl)c(Cl)c4)C[C@@]2(O)[C@H]1Cc1ccc(O)cc13 [Compound 99] ... 6.61
CN1CC[C@]23C[C@H](C(=O)NCc4ccc(Cl)cc4Cl)C[C@@]2(O)[C@H]1Cc1ccc(O)cc13 [Compound 107] ... 7.97

Now look at this entry.
q: For the molecule N#Cc1ccc2c(c1)[C@]13CCN(CC4CC4)[C@H](C2)[C@]1(O)C[C@@H](C(=O)NCCN1CCOCC1)C3 [Compound 123] , report pEC50.
a: 5.53
